Field: pIC50. System: Cathepsin S (Homo sapiens, UniProt P25774). Provenance: assorted publications.
Sequence (P25774 whole entry): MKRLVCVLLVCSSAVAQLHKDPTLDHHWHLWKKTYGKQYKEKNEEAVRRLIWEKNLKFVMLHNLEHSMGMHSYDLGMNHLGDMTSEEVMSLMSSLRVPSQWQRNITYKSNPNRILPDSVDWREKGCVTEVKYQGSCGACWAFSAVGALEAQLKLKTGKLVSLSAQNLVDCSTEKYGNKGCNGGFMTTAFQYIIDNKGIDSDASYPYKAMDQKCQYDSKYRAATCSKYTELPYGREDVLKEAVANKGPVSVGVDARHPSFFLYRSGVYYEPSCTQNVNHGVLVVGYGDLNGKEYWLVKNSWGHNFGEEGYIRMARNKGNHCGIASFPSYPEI
On this scale, pIC50 is minus log10 of a concentration expressed in M (mol/L).

Completed entries (count: 3):
C[C@H]1COCCN1CCCn1nc(-c2ccc(Cl)c(C#Cc3ccc(Cl)c(CNCc4ccccc4)c3)c2)c2c1CCN(C(=O)C(N)=O)C2 = 7.82
CC(=O)N1CCN(CCCn2nc(-c3ccc(C(F)(F)F)c(SCC(=O)N4CCOCC4)c3)c3c2CCN(S(C)(=O)=O)C3)CC1 = 6.51
CC(C)CC(C(=O)NCC#N)c1cccc(-c2ccccc2N2CCNCC2)c1 (configuration not stated) = 6.28

Task: Return pIC50 measured with Cathepsin S (Homo sapiens, UniProt P25774) given this compound: CCOC(=O)CNC(=O)C(=O)C(COCc1ccccc1)NC(=O)C(CC1CCCCC1)NC(=O)c1ccc(C(=O)OC)c(NC(=O)OC(C)(C)C)c1 (configuration not stated)
Output: 7.31

Task: Return pIC50 measured with Cathepsin S (Homo sapiens, UniProt P25774) given this compound: CS(=O)(=O)N1CCc2c(c(-c3ccc(Cl)c(C#Cc4ccc(CN[C@H](CO)c5ccccc5)cc4)c3)nn2CCCN2CCN(c3ccccn3)CC2)C1
Output: 7.60

Task: Return pIC50 measured with Cathepsin S (Homo sapiens, UniProt P25774) given this compound: CC(C)CC(C(=O)NCC#N)c1cccc(-c2ccccc2N2CCOCC2)c1 (configuration not stated)
Output: 5.47

Task: Return pIC50 measured with Cathepsin S (Homo sapiens, UniProt P25774) given this compound: CCOC(=O)CNC(=O)C(=O)C(COCc1ccccc1)NC(=O)C(CC1CCCCC1)NC(=O)c1cccc2c1C(=O)c1ccccc1-2 (configuration not stated)
Output: 8.06
